Biological target: T1, recombinant cynomolgus monkey CD73 extracellular domain (Trp27-Lys546) (cynomolgus monkey, UniProt P21589 27-547 (human entry))
T1 construct: also called cynoCD73; recombinant monkey CD73 extracellular domain
T1 chain: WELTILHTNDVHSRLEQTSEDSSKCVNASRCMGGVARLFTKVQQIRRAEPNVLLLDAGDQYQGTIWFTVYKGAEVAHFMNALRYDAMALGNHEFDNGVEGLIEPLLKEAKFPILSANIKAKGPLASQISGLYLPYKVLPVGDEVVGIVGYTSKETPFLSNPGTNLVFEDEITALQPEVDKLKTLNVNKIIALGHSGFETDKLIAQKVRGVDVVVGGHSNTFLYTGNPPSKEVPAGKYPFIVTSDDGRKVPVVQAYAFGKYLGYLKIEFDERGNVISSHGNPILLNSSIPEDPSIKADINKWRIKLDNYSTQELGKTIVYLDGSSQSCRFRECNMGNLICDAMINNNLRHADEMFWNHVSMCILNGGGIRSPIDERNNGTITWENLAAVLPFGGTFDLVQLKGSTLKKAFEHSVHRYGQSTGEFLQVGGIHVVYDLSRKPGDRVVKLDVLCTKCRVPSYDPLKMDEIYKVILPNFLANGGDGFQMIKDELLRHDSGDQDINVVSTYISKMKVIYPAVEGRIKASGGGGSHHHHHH
Assay: ELISA, plate coated with recombinant CD73 extracellular domain
quantity_name: pEC50
By convention, pEC50 is the negative base-10 log of a molar concentration.

CD73 antibody 2D4 (antibody, V domains shown, also called Clone 2D4) VH: EVKLVESGGGLVQPGGSLKLSCATSGFTFSDYYMYWVRQTPEKRLEWVAYISNVGGSTYYPDTVKGRFTISRDNAKNTLYLQMSRLKSEDTAIYYCARGDGYYGYYFDVWGAGTTVTVSS VL: QIVLTQSPAIMSASPGEKVTMTCSASSSVSYMHWYQQKSGTSPKRWIYDTSKLASGVPARFSGSGSGTSYSLTISSMEAEDAATYYCQQWSSNPYTFGGGTKLEIK; 10.70
CD73 antibody 6A8 (antibody, V domains shown, Mouse variable regions on human IgG heavy chain constant region and human kappa constant region (chimeric IgG); also called Clone 6A8) VH: QVQFQQSGAELARPGTSVKLSCKASGYIFTSYWIQWIKQRPGQGLEWIGAIYPGDGDTRYTQKFKGKATLTAEKSSSTAYMQLRSLASEDSAVYYCAGFASWGQGTLLTVSA VL: DIQMTQSPSSLSASLGERVNLTCRASQDIGDSLIWLQQEPDGTIKRLIYATSSLDSGVPKRFSGSRSGSDYSLTISSLESEDLVDYYCLQYASSPFTFGGGTKLEIK; 10.05
CD73 antibody 14H10 (antibody, V domains shown, Mouse variable regions on human IgG heavy chain constant region and human kappa constant region (chimeric IgG)) VH: QIQLQQSGAELARPGASVNLSCKASGYSFTSYWMQWLKQRPGQGLEWIGAIYPGDGDTRYTQKFKGKATLTADKSSSTAYMQLSSLASEDSAVYYCALFSYWGQGTLVTVSA VL: DIQMTQSPSSLSASLGERVSLTCRASQDIGSSLNWLQQEPDGTFKRLIYATSTLDSGVPKRFSGSRSGSDYSLTISSLESEDFVDYYCLQYASFPYTFGGGTKLEIK; 10.15

Fill in the blank: the reported pEC50 of CD73 antibody 14E4 (antibody, V domains shown, Mouse variable regions on human IgG heavy chain constant region and human kappa constant region (chimeric IgG); also called Clone 14E4) VH: QVQLQQSGPELVKPGASVKISCKASGYIFTNYYIHWVKQRPGQGLEWIGWIFPGSGNTKYSEKFKDKATLTADTSSSTAYMQLSSLTSEDSAVYFCAGLSDWGQGTTLTVSS VL: DIQMTQSPSSLSASLGERVSLTCRASQDIGDRLIWLQQEPAGTFKRLIYATSSLDSGVPKRFSGSRSGSDYSLTISSLESEDFVDYYCLQYASSPWTFGGGTKLEIK is ____. 9.74

Fill in the blank: the reported pEC50 of CD73 antibody 7E10 (antibody, V domains shown, Mouse variable regions on human IgG heavy chain constant region and human kappa constant region (chimeric IgG); also called Clone 7E10) VH: QVQFQQSGAELVRPGASVKLSCKASGYIFSSYWIQWVKQRPGQGLEWIGAIYPGDGDTRYTQKFKDKATLTADKSSSTAYMQLSSLASEDSAVYYCAGFASWGQGTLVTVSA VL: DIQMTQSPSSLSASLGERVSLTCRASQDIGSSLNWLQQEPNGTIKRLIYATSSLDSGVPKRFSGSRSGSDYSLTISSLESEDFADYYCLQYASSPYTFGGGTKLEIK is ____. 9.96

Fill in the blank: the reported pEC50 of CD73 antibody 6G8 (chimeric) (antibody, V domains shown, Mouse variable regions on human IgG heavy chain constant region and human kappa constant region (chimeric IgG); also called Clone 6G8; 6G8 Chimera) VH: QVTLKESGPGILKPSQTLSLTCSFSGFSLNTSGMGVGWIRQPSGKGLEWLAHIWWDDDKYYNPSLKSQLTISKDTSRNQVFLRIASVDTADTATYYCARRERWAWFAYWGQGTLVTVSA VL: DIVMTQSQKFMSASVGDRVSVTCKASQNVFTNVAWYQQKPGQSPKVLIYSASYRYSGVPDRFTGSGSGTDFTLTINNVQSEDLAEYFCQQYNSYPTFGSGTKLEIK is ____. 10.70

Cited source: patent US20220162331A1
